study target: HCV NS3 protease (UniProt P26663)
Sequence (P26663 1027-1206, other chains not shown): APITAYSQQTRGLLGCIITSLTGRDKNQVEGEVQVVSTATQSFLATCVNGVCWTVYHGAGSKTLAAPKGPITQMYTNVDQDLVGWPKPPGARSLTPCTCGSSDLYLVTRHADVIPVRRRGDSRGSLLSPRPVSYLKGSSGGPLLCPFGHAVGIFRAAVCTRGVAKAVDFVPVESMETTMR
Format: biochemical, HCV genotype 1b
Parameters: rows headed: IC50 (μM); IC50 (μM)
experimental setup: Table 6
Values of IC50 strictly less than 1000 nM map to rule met, and values of at least 1000 nM map to rule not met.

Query block: IC50 under 1000 nM? Item: C=CC1CC1(NC(=O)C1CC(Oc2cc(CN3CCOCC3)nc3ccccc23)CN1C(=O)C(NC(=O)OC(C)(C)C)C(C)(C)C)C(=O)O (centres unmarked)
Result block: rule not met

Query block: IC50 under 1000 nM? Item: C=CC1CC1(NC(=O)C1CC(Oc2cc(N(C)C)nc3ccccc23)CN1C(=O)C(NC(=O)OC(C)(C)C)C(C)(C)C)C(=O)O (centres unmarked)
Result block: rule not met

Query block: IC50 under 1000 nM? Item: C=CC1CC1(NC(=O)C1CC(Oc2ccnc3cc(Cl)ccc23)CN1C(=O)C(NC(=O)OC(C)(C)C)C(C)(C)C)C(=O)O (centres unmarked)
Result block: rule met

Query block: IC50 under 1000 nM? Item: C=C[C@@H]1C[C@]1(NC(=O)[C@@H]1C[C@@H](Oc2cc(-c3ccccc3)nc3cc(OC)ccc23)CN1C(=O)[C@@H](NC(=O)OC(C)(C)C)C(C)C)C(=O)O
Result block: rule met

Data origin: patent US6534523B1
